Measured values drawn from ChEMBL document CHEMBL1201862 for this set.

Test system: SK-MEL-5
TEST_SUMMARY: NCI tumour cell line growth inhibition, 48 h
Activity calls are given as the source filed them. No stated cut-off is given here; in the data, active = GI50 up to about 1.1 µM and inactive = higher. Bridge positions count the residues as written; N and C are the ends. Square brackets hold non-standard residues; d marks the D form. Peptide text beside a SMILES is read from it. * marks the point of attachment. Cbz = O=C(OCc1ccccc1)*; Dab = NCC[CH](N)C(=O)O; Bn = c1ccc(C*)cc1
Form entry, call: pick from true for active, false for inactive

Asked: Check the results log: what was the call for Fc1c(F)c(F)c2c(c1F)CSc1nc3ccccc3n1-2 ?
Given back: false

Asked: Check the results log: what was the call for NC(=O)N/N=C(\C(=O)C(=O)Nc1ccc(Cl)c(C(F)(F)F)c1)c1nc2ccc(C(=O)c3ccccc3)cc2nc1O ?
Given back: false

Asked: Check the results log: what was the call for C1CCN2CC3CONC3C2C1 (stereo unspecified) ?
Given back: false

Asked: Check the results log: what was the call for Cc1cn(CCC(N)C(=O)O)c(=O)[nH]c1=O (stereo unspecified) ?
Given back: false

Asked: Check the results log: what was the call for Cc1cccc(NC(=O)/C=C/c2ccc(N(CCC#N)CCC#N)cc2C)c1 ?
Given back: false

Asked: Check the results log: what was the call for COc1ccc(C2=C(OC(=O)N(C)C)c3cccn3-c3cc(Cl)ccc3S2)cc1 ?
Given back: false

Asked: Check the results log: what was the call for CCOC(=O)c1ncoc1[C@H]1COC(C)(C)O1 ?
Given back: false

Asked: Check the results log: what was the call for CN(C)C(=O)/C=C/c1c[nH]c(=O)[nH]c1=O ?
Given back: false

Asked: Check the results log: what was the call for CCOC(=O)c1cc(C(=O)c2ccccc2)n2nc(-c3ccc(Cl)cc3)ccc12 ?
Given back: false

Asked: Check the results log: what was the call for CC(=O)O[C@H]1[C@@H](N2CCOCC2)C[C@H]2[C@@H]3CC=C4C[C@@H](N5CCCC5)CC[C@]4(C)[C@H]3CC[C@@]21C ?
Given back: false

Asked: Check the results log: what was the call for Nc1ncnc2c1ncn2CC(O)CO (stereo unspecified) ?
Given back: false

Asked: Check the results log: what was the call for COc1ccc(/N=N/N2CCCC2)cc1 ?
Given back: false

Asked: Check the results log: what was the call for O=C1Nc2ccccc2/C1=N/NC(=S)N1CCCC1 ?
Given back: true

Asked: Check the results log: what was the call for [N-]=[N+]=NC(c1cn(C2CC(O)C(CO)O2)c(=O)[nH]c1=O)C(Br)I (stereo unspecified) ?
Given back: false

Asked: Check the results log: what was the call for COc1ccc2c(C3(O)CCNCC3)c[nH]c2c1 ?
Given back: false

Asked: Check the results log: what was the call for O=c1c2c(F)c(F)c(F)c(F)c2sc2nccn12 ?
Given back: false

Asked: Check the results log: what was the call for Cc1cc(S(=O)(=O)NC2=Nc3ccc(Cl)cc3C(c3ccccc3)N2)c(S)cc1Cl (stereo unspecified) ?
Given back: false

Asked: Check the results log: what was the call for Clc1ccc(C2ON=C(c3ccccc3)N2C23CC4CC(CC(C4)C2)C3)cc1 (stereo unspecified) ?
Given back: false

Asked: Check the results log: what was the call for CN(C)C(=C1C(Br)=C(Br)C(Br)=C1Br)N(C)C ?
Given back: false

Asked: Check the results log: what was the call for NNC1=Nc2ccc(Cl)cc2C(=S)N2CSCC12 (stereo unspecified) ?
Given back: false

Asked: Check the results log: what was the call for CCCCCCCCCCCCCCCC(=O)OCC1OC(OC)C2NP(=O)(N(CCCl)CCCl)OC1C2O (stereo unspecified) ?
Given back: false

Asked: Check the results log: what was the call for CC(C)CC1NC(=O)C(Cc2ccccc2)NC(=O)C(Cc2ccccc2)NC(=O)C(NC(=O)C(Cc2ccc(OCc3ccccc3)cc2)NC(=O)OCc2ccccc2)CCNC1=O (stereo unspecified) (Cbz-Y(Bn)[Dab]FFL; lactam 2-C; configuration not given here) ?
Given back: false

Asked: Check the results log: what was the call for Cc1c[n+]2c3ccccc3c3ccccc3c2s1.[O-][Cl+3]([O-])([O-])[O-] ?
Given back: false

Asked: Check the results log: what was the call for N=c1oc2cc(O)c(O)cc2cc1C(N)=O ?
Given back: false

Asked: Check the results log: what was the call for C#C[C@]1(O)CC[C@H]2[C@@H]3CCC4=C/C(=N\OCCN5CCCCC5)CC[C@]4(C)[C@H]3CC[C@@]21C ?
Given back: false

Asked: Check the results log: what was the call for CN1N=C(c2ccncc2)OC1c1cccc(F)c1 (stereo unspecified) ?
Given back: false

Asked: Check the results log: what was the call for O=C(OCCN=c1c2ccccc2ccc2ccccc12)c1cc([N+](=O)[O-])cc([N+](=O)[O-])c1 ?
Given back: false

Asked: Check the results log: what was the call for CCOC(=O)CSc1cc[nH]c(=O)n1 ?
Given back: false

Asked: Check the results log: what was the call for CCCCNC(=O)OCC(COc1ccccc1OC)OC(=O)NCCCC (stereo unspecified) ?
Given back: false

Asked: Check the results log: what was the call for CC1NOC(=O)C1/N=N/c1ccccc1Cl (stereo unspecified) ?
Given back: false

Asked: Check the results log: what was the call for COc1cc(NC(C)=O)ccc1C(=O)N/N=C/c1ccco1 ?
Given back: false

Asked: Check the results log: what was the call for CC(C)(C)OC(=O)NCC(=O)N(CCc1ccc(Cl)c(Cl)c1)CCN1CCCC1 ?
Given back: false

Asked: Check the results log: what was the call for O=C1c2ccccc2C(=O)N1CCn1nc(-c2ccccc2)cc(-c2ccccc2)c1=O ?
Given back: false

Asked: Check the results log: what was the call for CC1=NN(c2nc(N)nc(CSCc3nc(N)nc(N(C)C)n3)n2)C(C)(C)C1 ?
Given back: false

Asked: Check the results log: what was the call for COc1cc2c(c3c1c(=O)c1ccccc1n3C)C=CC1(CCCC1)O2 ?
Given back: false

Asked: Check the results log: what was the call for Cc1ccc2nc(-c3ccc(C(C)(C)C)cc3)oc(=O)c2c1 ?
Given back: false

Asked: Check the results log: what was the call for COc1ccc(S(=O)(=O)N/N=C/c2cc(I)cc([N+](=O)[O-])c2O)cc1OC ?
Given back: false

Asked: Check the results log: what was the call for O=C(O)C1Cc2[nH]c3ccccc3c2C2CCCC12 (stereo unspecified) ?
Given back: false

Asked: Check the results log: what was the call for COc1ccc2c(=O)c(C)c(-c3ccccc3)oc2c1CN(C)C ?
Given back: false

Asked: Check the results log: what was the call for CCOC(=O)c1cc(NC(=O)c2ccccc2)c(=O)n2c(cc3c(Cl)cccc32)c1O ?
Given back: false

Asked: Check the results log: what was the call for COC(=O)C1=Cc2cc(OC)c(O)cc2[C@@H](c2ccc(O)c(OC)c2)[C@@H]1C(=O)OC ?
Given back: false
